- assay text: qHTS assay to identify small molecule agonists of the androgen receptor (AR) signaling pathway in the presence of an antagonist - cell viability counter screen (AID 1259379); also: nearly all actives have a fitted effect of over 25% in size
- condition summary: MDA-kb2 viability, CellTiter-Fluor, 16 h; series mostly up to 92.4 µM
Records with an inconclusive call do not appear. Activity calls are given as the source filed them. Calls follow the shape of the dose curve; as a rule, active = well fitted cell-killing curve with a large enough effect in the repeat runs; inconclusive = weak or mixed curves, or effect the other way; inactive = flat fitted curve, though single readings scatter.
Respond using exactly one of the listed classes: y = active, n = inactive

Reference set (5 entries):
[
  {
    "compound": "CCO[Si](OCC)(OCC)OCC",
    "group label": "n"
  },
  {
    "compound": "Sc1nc2ccccc2s1",
    "group label": "n"
  },
  {
    "compound": "Cc1c(N)cccc1C(F)(F)F",
    "group label": "n"
  },
  {
    "compound": "O=C1NC(=O)[C@@H]2CC=CC[C@H]12",
    "group label": "n"
  },
  {
    "compound": "CCCCCCCCCCCCOC(=O)c1ccc(O)cc1",
    "group label": "n"
  }
]

Could you please tell me the result logged for C#Cc1ccc(-c2ccccc2F)cc1 in this assay? n

Which outcome was entered for the compound OC/C=C/CO in this test? n

Look up the recorded call for CCC(C)(CCC(C)C)C(=O)[O][Sn]([CH3])([CH3])[O]C(=O)C(C)(CC)CCC(C)C (centres undefined) in this test. n

GET /call?item= Nc1ccc(Oc2ccc(Cl)cc2)cc1 returns the recorded outcome of this test. n

For CC(C)=CCC1=C(O)c2ccccc2C(=O)C1=O , what call appears in the results of this test? y

###

- experimental target: Androgen receptor (Homo sapiens)
- assay text: qHTS assay to identify small molecule antagonists of the androgen receptor (AR) signaling pathway (AID 743035)
- condition summary: HEK293 AR-UAS-bla, R1881-stimulated, beta-lactamase FRET, 16 h; series mostly up to 58.5 µM
Results filed as inconclusive are left out. Calls of active or inactive are those of the source. Calls come from the whole dose curve; as a rule, active = well fitted inhibition curve with a large enough effect in the signal ratio in the repeat runs (not every such curve was filed as active); inconclusive = weak or mixed curves, or effect the other way; inactive = no such curve, though single readings can be large or run the other way; the % refers to the signal ratio.
Return exactly one item of 1 (yes) = active, 0 (no) = inactive

Known results for compounds:
[
  {
    "compound": "CN(C)Cc1ccccc1O",
    "group label": "0 (no)"
  },
  {
    "compound": "NC(=O)c1cccc([N+](=O)[O-])c1",
    "group label": "0 (no)"
  },
  {
    "compound": "NC(=S)NC(N)=S",
    "group label": "0 (no)"
  },
  {
    "compound": "CCCCCCOC(=O)C(C)CC (centres undefined)",
    "group label": "0 (no)"
  },
  {
    "compound": "ClCCl",
    "group label": "0 (no)"
  },
  {
    "compound": "CC(=O)c1ccc(C(C)=O)cc1",
    "group label": "0 (no)"
  },
  {
    "compound": "Nc1ccc(C(=O)O)c(O)c1",
    "group label": "0 (no)"
  },
  {
    "compound": "Cc1ccc(C)cc1",
    "group label": "0 (no)"
  },
  {
    "compound": "C=CC(=O)OCCOC(=O)C=C",
    "group label": "0 (no)"
  },
  {
    "compound": "CCN1C(=O)c2ccccc2C1Nc1ccc(OCCN2CCCCC2)cc1 (centres undefined)",
    "group label": "0 (no)"
  }
]

How did this test come out for CCOC(=O)Cn1cccc1-c1nc(-c2ccc(OC)cc2)c(-c2ccc(OC)cc2)s1 ? 0 (no)

Name the outcome recorded for O=C(O)Cc1ccccc1Nc1c(Cl)cccc1Cl in the assay. 0 (no)

What is the recorded call for this compound in the test? COc1c(C)c2c(c(O)c1C/C=C(\C)CCC(=O)OCCN1CCOCC1)C(=O)OC2 1 (yes)

Any idea what this test logged for CNc1ccc([N+](=O)[O-])cc1 ? 0 (no)
